system: CCRF-CEM; experiment: NCI tumour cell line growth inhibition, 48 h
Calls of active or inactive are those of the source. No stated cut-off is given here; in the data, active = GI50 up to about 1.1 µM and inactive = higher.
Hi! Could you answer with just one of these? label 1 for active, label 0 for inactive

Inquiry: Given CCOC(=O)C(NC(=O)c1ccccc1)(N1CCOCC1)C(F)(F)F (centres undefined) , state the outcome it received in this test.
Reply text: label 0

Inquiry: How did this test come out for Cc1cc(C)c(C2=NOC(c3ccccc3)(c3cc(=O)n(-c4ccccc4)s3)O2)c(C)c1 (centres undefined) ?
Reply text: label 0

====

tested on: MOLT-4; assay: NCI tumour cell line growth inhibition, 48 h
Calls of active or inactive are those of the source. Cut-off read from the data, not from the text of the source: active = GI50 up to about 1.1 µM and inactive = higher.
Hi! Could you answer with just one of these? Yes = active, No = inactive

Answered cases to consult:
Inquiry: Query: recorded result category for `CCCN(CCC)C1=Nc2ccccc2-n2cnnc2C1` in this test
Reply text: No

Inquiry: What classification did `Cc1nc2ccc(S(=O)(=O)Nc3ccc(Cl)cc3)cc2c(=O)n1NC(=O)CNc1ccc(Cl)cc1` end up with in this test?
Reply text: No

Inquiry: Could you please tell me the result logged for `Cc1cc(S(=O)(=O)Nc2nc(N)n(-c3ccccn3)n2)c(S)cc1Cl` in this assay?
Reply text: No

Inquiry: Status in this test for `COc1ccc(S(=O)(=O)O)cc1-n1nc(C(=O)Nc2ccccc2)n[n+]1-c1cc(S(=O)(=O)[O-])ccc1OC` ?
Reply text: No

Others:
Inquiry: Called result for COc1ccc(C(OCC2OC(n3cnc4c(=O)n(Cc5ccccc5[N+](=O)[O-])nnc43)C(O)C2O)(c2ccccc2)c2ccc(OC)cc2)cc1 (stereo unspecified)
Reply text: No

Inquiry: Please indicate how the test categorized C=C1C(=O)OC2CC1C(OC(=O)/C=C/c1ccccc1)C/C(C)=C/CC/C(C)=C/CCC2(C)O (stereo unspecified) .
Reply text: Yes

Inquiry: Could you kindly confirm the outcome this assay logged for CCOC(=O)CCC(NC(=O)N1CCN(c2c(C)nc(C)nc2O)CC1)C(=O)OCC (stereo unspecified) ?
Reply text: No

Inquiry: Kindly provide the recorded test outcome for the following molecule: `CN(C)CCCNc1ccc2nnn3c4ccc(OC(=O)c5ccc([N+](=O)[O-])cc5)cc4c(=O)c1c23`
Reply text: Yes

====

test system: HT-29; assay: NCI tumour cell line growth inhibition, 48 h
Active and inactive are the calls of the source. Rule as the data show it: active = GI50 up to about 1.1 µM and inactive = higher.
Would you mind telling me the reported GI50 of each entry?

For each entry beneath this line, provide reported GI50.
1. O=C(O)c1c[nH]c2c(=O)[nH]cnc12
2. O=C1CC[C@@H](NC(=O)Cc2ccccc2)C(=O)N1

Reply text:
> 100 µM (inactive)
> 100 µM (inactive)

For every record below, what is its GI50?
1. CCOC(=O)c1cc(C2CCN(CC(C)CC)C2=S)c(C(=O)/C=C(/C)N)[nH]1 (stereo unspecified)
2. CN(N=O)C(=O)N[C@H]1C(O)O[C@H](CO)[C@@H](O)[C@@H]1O (stereo partly specified)
3. BrCC[N+]12CC[N+](CCBr)(CC1)C2
4. O=C(O)c1nn[nH]c1S

Reply text:
["> 50 µM (inactive)", "618 µM (inactive)", "> 100 µM (inactive)", "> 100 µM (inactive)"]

====

test system: MOLT-4; test: NCI tumour cell line growth inhibition, 48 h
Calls of active or inactive are those of the source. Rule as the data show it: active = GI50 up to about 1.1 µM and inactive = higher.
experimental_endpoint: GI50

Solved cases below.
// GI50 lookup, compound = CCCCCC(/C=C/[C@@H]1[C@H]2CC(=O)O[C@H]2C[C@H]1N1CCOCC1)OC1CCCO1 (stereo not given in full) , result: > 100 µM (inactive)

The recorded GI50 for entry COc1c2c(c3ccccc3c1O)C1C=CC2C1 (stereo not given) equals 13.2 µM (inactive)

Reported GI50 for `Cc1cc(C)c(-n2c(-c3ccc(Br)cc3)cs/c2=N\N=C2C=C(C(C)(C)C)C(=O)C(C(C)(C)C)=C2)c(C)c1` was > 100 µM (inactive)

Summary for this compound, `O=c1[nH]c(=S)[nH]cc1CN1CCOCC1` : GI50 is > 100 µM (inactive)

GI50 recorded for this compound, `CCCCCCCCc1cc2c(O)c(c1)Cc1cc(CCCCCCCC)cc(c1O)Cc1cc(CCCCCCCC)cc(c1O)Cc1cc(CCCCCCCC)cc(c1O)Cc1cc(CCCCCCCC)cc(c1O)Cc1cc(CCCCCCCC)cc(c1O)C2` , is > 100 µM (inactive)

compound N#Cc1c(N2CCC(O)C2)c2ccccc2n2c1nc1ccccc12 (stereo not given) , GI50 observed: > 100 µM (inactive)

Please report GI50 for every entry that follows.
1. CC(=O)Nc1ccc(C(=O)N2N=C(C)/C(=C/c3ccc(O)cc3)C2=O)cc1
2. CN(C)C(Cc1c[nH]cn1)C(=O)N1CCCC1C(N)=O (stereo not given)
3. Nc1nc(Cl)c(N)c(NCC2(CO)CC(Cc3ccccc3)C2)n1 (stereo not given)
4. O/N=C1/C(=C/c2ccc(Oc3ccccc3)cc2)CCCC1C(NO)c1ccc(Oc2ccccc2)cc1 (stereo not given)
5. Cn1c2cc(O)cc(O)c2c(=O)c2c([N+](=O)[O-])cccc21

Reply text:
1. > 100 µM (inactive)
2. > 100 µM (inactive)
3. 16.3 µM (inactive)
4. 4.43 µM (inactive)
5. > 100 µM (inactive)

Quick request: GI50 for each listed item, please.
1. COc1cc2c(c(O)c1O)C(=O)C1CCC(=O)N1C2c1cccc2ccccc12 (stereo not given)
2. COc1ccc2[nH]c3c(c2c1)[C@H](C)C[C@@H]1C(=O)N(c2ccccc2)C(=O)[C@H]31
3. CC(=O)NCc1c(C(N)=O)ncn1Cc1ccccc1
4. O=C(N/N=C/c1ccc([N+](=O)[O-])cc1)c1cccc2nc3ccccc3nc12
5. COC(=O)N/N=C/c1oc(-c2ccccc2)c(-c2ccccc2)c1[N+](=O)[O-]

Reply text:
> 50 µM (inactive)
20.6 µM (inactive)
> 100 µM (inactive)
> 36.8 µM (inactive)
> 100 µM (inactive)

Quick request: GI50 for each listed item, please.
1. O=C1C/C(=C/c2ccc(/C=C3/CC(=O)N(c4cccc(Br)c4)C3=O)cc2)C(=O)N1c1cccc(Br)c1
2. COC(=O)C[S+]([O-])c1ccccc1 (stereo not given)
3. COc1c(-c2cccs2)oc2c(CC(=O)O)cccc2c1=O
4. COc1ccc(-c2nc(N)c(C#N)c3c2CCSc2ccc(C)cc2-3)cc1OC

Reply text:
1: 54.2 µM (inactive); 2: 10.8 µM (inactive); 3: 56.9 µM (inactive); 4: 3.49 µM (inactive)
